FYI, the data here is from the supplement of paper PMC7156485.

Record form. Attribute: H1.0 immunofluorescence intensity. Fill in for each entry.
System: HCC1569
Assay: H1.0 immunofluorescence intensity relative to DMSO (% of DMSO); higher = stronger H1.0 induction, active = 140 or more
Conditions: concentration: 10 µM; 24 h
Counter-ions that a name gives are not always drawn.
Respond using a number only.

Record lookup: for HCC1569, what H1.0 immunofluorescence intensity belongs to S=C(NCc1ccc2c(c1)OCO2)N1CCN(c2ncnc3c2oc2ccccc23)CC1 ?
132

Cool, now CN1c2ccccc2C(=O)N2CCc3c([nH]c4ccccc34)C21 (stereo unspecified)
123

Cool, now CCC1(O)CC2CN(CCc3c([nH]c4ccccc34)C(C(=O)OC)(c3cc4c(cc3OC)N(C)C3C(O)(C(=O)OC)C(OC(C)=O)C5(CC)C=CCN6CCC43C65)C2)C1.O=S(=O)(O)O (stereo unspecified) [Vinblastine sulfate salt]
132

Cool, now CC(C(O)c1ccc(O)cc1)N1CCC(Cc2ccccc2)CC1 (stereo unspecified) [Ifenprodil tartrate]
98.5

Cool, now O=c1ccn(C2OC(COP(=O)([O-])OP(=O)([O-])O)C(O)C2O)c(=O)[nH]1.[Na+].[Na+] (stereo unspecified) [Uridine 5'-diphosphate sodium]
98.7

Cool, now CC(C)(C)C1(O)CCN2CC3c4ccccc4CCc4cccc(c43)C2C1.Cl (racemic)
91

Cool, now Cc1ncc(Cl)cc1NCc1ccc(C(=O)N[C@@H](CC2CCCC2)C(=O)NC2CC2)s1
101

Cool, now Cl.Cl.c1ccc2c3c([nH]c2c1)C1C2CCC(C4CCCNC42)N1CC3 (stereo unspecified)
101

Cool, now CC(=O)C1CCC2C3CCC4=CC(=O)CCC4(C)C3CCC12C (stereo unspecified)
102

Cool, now CS(=O)(=O)O.Cc1ccc(NC(=O)c2ccc(CN3CCN(C)CC3)cc2)cc1Nc1nccc(-c2cccnc2)n1
127

Cool, now CC(C)NCC(O)COc1ccc(CC(N)=O)cc1 (stereo not drawn) [S(-)-Atenolol]
96.4

Cool, now CC(=O)Nc1ccc(CC(=O)O)cc1
96.5

Cool, now COc1ccccc1N1CCN(CCCCNS(=O)(=O)c2cccc3c(N(C)C)cccc23)CC1.O=C(O)C=CC(=O)O [Cortexolone maleate]
131

Cool, now Cc1ccc(-c2nn(C(C)(C)C)c3ncnc(N)c23)cc1
188

Cool, now COc1ccc2cc1Oc1ccc(cc1)CC1c3cc(c(OC)cc3CCN1C)Oc1c(OC)c(OC)c(OC)c3c1C(C2)N(C)CC3 (stereo unspecified)
110

Cool, now O.O=c1c(O)c(-c2ccc(O)cc2O)oc2cc(O)cc(O)c12
98.8

----------
Record form. Attribute: H1.0 immunofluorescence intensity. Fill in for each entry.
Test system: HCC1569
Test: H1.0 immunofluorescence intensity relative to DMSO (% of DMSO); higher = stronger H1.0 induction, active = 140 or more
Conditions: concentration: 10 µM; 24 h
Respond using a number only.

Recorded H1.0 immunofluorescence intensity of O=C1CCC(N2C(=O)c3ccccc3C2=O)C(=O)N1 (racemic) , please.
99.3

Cool, now CCN(CCO)CCCC(C)Nc1ccnc2cc(Cl)ccc12.O=S(=O)(O)O (configuration not stated)
95.7

Cool, now Nc1nc(OCc2ccccc2)c2[nH]cnc2n1
95.8

Cool, now CCCCCC1OC1CC=CCC=CCC=CCCCC(=O)O (configuration not stated)
94.8

Cool, now CC(=O)C1CCC2C3CC=C4CC(OS(=O)(=O)[O-])CCC4(C)C3CCC12C.[Na+] (configuration not stated) [Pregnenolone sulfate sodium]
97.8

Cool, now Cc1cccc2c3c(ccc12)C1=C(C(=O)C3=O)C(C)CO1 (configuration not stated) [Dihydrotanshinone]
106

Cool, now COC(=O)C1=C(C)NC(C)=C(C(=O)OCCN(C)Cc2ccccc2)C1c1cccc([N+](=O)[O-])c1.Cl (configuration not stated) [Nicardipine hydrochloride]
100

Cool, now COC(=O)C1=C(C)NC(C)=C(C(=O)OC)C1c1ccccc1[N+](=O)[O-]
104

Cool, now CCC(CCC(C)C1CCC2C3CC=C4CC(O)CCC4(C)C3CCC12C)C(C)C (configuration not stated)
90.6

Cool, now CC(N)(COP(=O)(O)O)C(=O)O (configuration not stated)
102

Cool, now CN1CCN(c2nc3cc(C(F)(F)F)ccc3n3cccc23)CC1.O=C(O)C=CC(=O)O
113

Cool, now COc1c(O)cc2c(c1O)C1OC(CO)C(O)C(O)C1OC2=O (configuration not stated)
93.5

Cool, now Cl.NC(CO)C(=O)NNCc1ccc(O)c(O)c1O (configuration not stated) [Benserazide hydrochloride]
96.3

Cool, now Cc1ncc([N+](=O)[O-])n1CCO
99.3

Cool, now CC1CC2C3CCC4=CC(=O)C=CC4(C)C3(F)C(O)CC2(C)C1(O)C(=O)CO (configuration not stated) [Dexamethasone]
112

Cool, now C=C1C(=O)OC2C1CCC(=C)C1CCC(=C)C12 (configuration not stated) [Dehydrocostus lactone]
103

Cool, now NC(=S)NN=Cc1ncccc1N
99.1

----------
System: HCC1569
Assay: cell number relative to DMSO (% of DMSO); higher = more cells (less growth inhibition / toxicity)
Conditions: concentration: 10 µM; 24 h
VALUE_KIND: cell number
Respond using a number only.

Recorded cell number of CC(C)CCN1c2nc(Nc3cc(F)c(O)c(F)c3)ncc2N(C)C(=O)C1C (centres undefined) , please.
65

Cool, now CCCC(=O)NCCc1c2n(c3ccc(OC)cc13)CCCc1ccccc1-2
96.8

Cool, now O=C(C=Cc1ccc(O)cc1)CC(=O)C=Cc1ccc(O)cc1 [Bis demethoxycurcumin]
83.7

Cool, now O=NN(CCCl)C(=O)NCCCl [Carmustine]
99

Cool, now Nc1ccc(S(=O)(=O)Nc2ccnn2-c2ccccc2)cc1 [Sulfaphenazole]
107

Cool, now CCC1(c2ccccc2)C(=O)NCNC1=O [Primidone]
102

Cool, now COC(=O)c1ccccc1O [Methyl salicylate]
100

Cool, now CC1CNCCN1S(=O)(=O)c1cccc2cnccc12.Cl.Cl (centres undefined) [H-7 dihydrochloride]
96.8

Cool, now c1ccc(-c2ccc(C(c3ccccc3)n3ccnc3)cc2)cc1 (centres undefined) [Bifonazole]
101

----------
Test system: HCC1569
Experiment: cell number relative to DMSO (% of DMSO); higher = more cells (less growth inhibition / toxicity)
Conditions: concentration: 10 µM; 24 h
Rule: yes for cell number not less than 100, no for anything less.

Is cell number for COc1cc2ncnc(Nc3ccc(OCc4ccccc4)cc3)c2cc1OC at or above 100?
no

Cool, now O=C(O)Cc1sc(-c2ccccc2)nc1-c1ccc(Cl)cc1
no

Cool, now CC(Cc1ccccc1)Nc1ncnc2c1ncn2C1OC(CO)C(O)C1O (stereo not drawn) [R(-)-N6-(2-Phenylisopropyl)adenosine]
yes

Cool, now CC1=NC(=NNc2cc(S(=O)(=O)[O-])c3cc([N+](=O)[O-])cc(S(=O)(=O)[O-])c3c2)C(COP(=O)([O-])[O-])=C(C=O)C1=O.[Na+].[Na+].[Na+].[Na+] [PPNDS tetrasodium]
yes

Cool, now O=C1Cc2c([nH]c3ccc(Br)cc23)-c2ccccc2N1 [Kenpaulone]
no

Cool, now Cc1cn[nH]c1.Cl [4-Methylpyrazole hydrochloride]
yes

Cool, now Cc1ccc(S(=O)(=O)Cc2nc(-c3ccc(C(=O)NCc4cccnc4)cc3)oc2C)cc1
no

Cool, now O=C(Nc1ncc([N+](=O)[O-])s1)c1ccc([N+](=O)[O-])c(Cl)c1 [3-chloro-4-nitro-N-(5-nitrothiazol-2-yl)benzamide]
no

----------
Test system: TDF
Test: cell number relative to DMSO (% of DMSO); higher = more cells (less growth inhibition / toxicity)
Conditions: concentration: 10 µM; 24 h
VALUE_KIND: cell number
Respond using a number only.

Recorded cell number of C=C1OC(CO)(n2cnc3c(N)ncnc32)C(O)C1O (stereo not drawn) , please.
105

Cool, now O=C(NOCC1CC1)c1ccc(F)c(F)c1Nc1ccc(I)cc1Cl
71

Cool, now CC(C)(Sc1cc(C(C)(C)C)c(O)c(C(C)(C)C)c1)Sc1cc(C(C)(C)C)c(O)c(C(C)(C)C)c1
106

Cool, now O=C(O)Cc1c[nH]c2ccccc12
102

Cool, now O=C([O-])C=CC(O)c1ccc(Cl)cc1.[Na+] (stereo not drawn)
97.4

Cool, now N#CC(=Cc1ccc(O)c(O)c1)C(=O)NCc1ccccc1
96

Cool, now CCN(CC)CCCCCCCCOC(=O)c1cc(OC)c(OC)c(OC)c1.Cl [TMB-8 hydrochloride]
105

Cool, now CC(C)=CCc1cc2c(cc1O)oc(=O)c1c3ccc(O)cc3oc21
95.7

Cool, now CN1CCC(=C2c3ccccc3CC(=O)c3sccc32)CC1.O=C(O)C=CC(=O)O [Ketotifen fumarate]
99.6

Cool, now O=C(COc1ccc(Cl)cc1)NC1CCC(NC(=O)COc2ccc(Cl)cc2)CC1 (stereo not drawn)
100

Cool, now CCN(CC)CC(=O)Nc1c(C)cccc1C.Cl [Lidocaine hydrochloride]
101

Cool, now CCCCCCCCCCCCCC=CC(O)C(N)CO (stereo not drawn)
101

Cool, now O=C(NC(NC(=S)Nc1ccc(F)c([N+](=O)[O-])c1)C(Cl)(Cl)Cl)C(c1ccccc1)c1ccccc1 (stereo not drawn)
58.3

Cool, now Br.CCSC(=N)N [S-Ethylisothiourea hydrobromide]
109

Cool, now O=c1cc(-c2ccccc2)[nH]c2nc(Cl)ccc12 [7-Chloro-4-hydroxy-2-phenyl-1,8-naphthyridine]
20.4

Cool, now COc1cccc2c1C(=O)c1c(O)c3c(c(O)c1C2=O)CC(O)(C(C)=O)CC3OC1CC(N)C(O)C(C)O1 (stereo not drawn)
8.2

Cool, now NC(C(=O)O)C1CC(Cl)=NO1 (stereo not drawn)
68.8

Cool, now CC(C)NCC(O)c1ccc(O)c(O)c1.O=C(O)C(O)C(O)C(=O)O (stereo not drawn) [S(+)-Isoproterenol (+)-bitartrate]
97.6
